Cited source for all entries: patent US20240228507A1

test: Maximum absorbance of Nile Red dye in the solvent; type: physicochemical
OUTCOME MEASURE: maximum absorbance of Nile Red (nm)

COMPOUND: NCCO [Ethanolamine]
OUTCOME MEASURE: maximum absorbance of Nile Red
RESULT VALUE: 557
//
COMPOUND: ClCCl [dichloromethane]
OUTCOME MEASURE: maximum absorbance of Nile Red
RESULT VALUE: 535.2
//
COMPOUND: CO [Methanol, methanol]
OUTCOME MEASURE: maximum absorbance of Nile Red
RESULT VALUE: 550
//
COMPOUND: CC(C)C1OC[C@H]2O[C@@H]3OC(C(C)C)O[C@@H]3[C@H]2O1 (stereo partly drawn) [Compound 4]
OUTCOME MEASURE: maximum absorbance of Nile Red
RESULT VALUE: 534.5
//
COMPOUND: CCCC1OC[C@H]2O[C@@H]3OC(CCC)O[C@@H]3[C@H]2O1 (stereo partly drawn) [Compound 24]
OUTCOME MEASURE: maximum absorbance of Nile Red
RESULT VALUE: 535
//
COMPOUND: CN(C)C=O [DMF, N,N-dimethylformamide]
OUTCOME MEASURE: maximum absorbance of Nile Red
RESULT VALUE: 541
//
COMPOUND: CC#N [Acetonitrile, acetonitrile]
OUTCOME MEASURE: maximum absorbance of Nile Red
RESULT VALUE: 531.6
//
COMPOUND: CCC1OC[C@H]2O[C@@H]3OC(CC)O[C@@H]3[C@H]2O1 (stereo partly drawn) [Compound 3]
OUTCOME MEASURE: maximum absorbance of Nile Red
RESULT VALUE: 536
//
COMPOUND: O=S1(=O)CCCC1 [Sulfolane]
OUTCOME MEASURE: maximum absorbance of Nile Red
RESULT VALUE: 545
